# MIC measurements, system: S.typhi 901
Your answer is read as ng/mL, so omit the unit and give the number.

Problem: Check the records and state MIC for Nc1nc(C(=NOCC(=O)O)C(=O)NC2C(=O)N3C(C(=O)[O-])=C(C[n+]4ccc5cc(O)c(O)cc5c4)CSC23)ns1 (stereo not drawn)
Result: 5

Problem: Check the records and state MIC for Nc1nc(C(=NOC(C(=O)O)c2ccccc2)C(=O)NC2C(=O)N3C(C(=O)[O-])=C(C[n+]4ccc5cc(O)c(O)cc5c4)CSC23)ns1 (stereo not drawn)
Result: 5

Problem: Check the records and state MIC for CC(C)(O/N=C(\C(=O)N[C@@H]1C(=O)N2C(C(=O)[O-])=C(C[n+]3ccccc3)CS[C@H]12)c1csc(N)n1)C(=O)O [CAZ, reference compound]
Result: 100

====

Would you kindly list MIC for each of these compounds?
Test system: S. aureus Terajima
Assay: In vitro antibacterial activity, agar disc dilution method
Format: cell-based
Settings: Staphylococcus aureus; S. aureus Terajima; Mueller Hinton agar, 10^6/ml, 37°C for 16 hours; read-out: minimum growth inhibitory concentration (MIC)
Your answer is read as µg/mL, so omit the unit and give the number.

Problem: Check the records and state MIC for Nc1nc(C(=NOCC(=O)O)C(=O)NC2C(=O)N3C(C(=O)[O-])=C(C[n+]4ccc5cc(O)c(O)cc5c4)CSC23)ns1 (stereo not drawn)
Result: 3.1

Problem: Check the records and state MIC for CON=C(C(=O)NC1C(=O)N2C(C(=O)[O-])=C(C[n+]3ccc4cc(O)c(O)cc4c3)CSC12)c1nsc(N)n1 (stereo not drawn)
Result: 1.6

Problem: Check the records and state MIC for CC(C)(ON=C(C(=O)NC1C(=O)N2C(C(=O)[O-])=C(C[n+]3ccc4cc(O)c(O)cc4c3)CSC12)c1csc(N)n1)C(=O)O (stereo not drawn) [Comparative Compound B, reference compound]
Result: 3.1

Problem: Check the records and state MIC for Nc1nc(C(=NOC(C(=O)O)c2ccccc2)C(=O)NC2C(=O)N3C(C(=O)[O-])=C(C[n+]4ccc5cc(O)c(O)cc5c4)CSC23)ns1 (stereo not drawn)
Result: 3.2

Problem: Check the records and state MIC for CC(C)(ON=C(C(=O)NC1C(=O)N2C(C(=O)[O-])=C(C[n+]3ccc4cc(O)c(O)cc4c3)CSC12)c1nsc(N)n1)C(=O)O (stereo not drawn)
Result: 3.1

Problem: Check the records and state MIC for CON=C(C(=O)NC1C(=O)N2C(C(=O)[O-])=C(C[n+]3ccc4cc(O)c(O)cc4c3)CSC12)c1csc(N)n1 (stereo not drawn) [Comparative Compound A, reference compound]
Result: 0.4

====

Tested on: S.pyogenes Cook
Experiment: In vitro antibacterial activity, agar disc dilution method
Type: cell-based
Settings: Streptococcus pyogenes; S.pyogenes Cook; Mueller Hinton agar, 10^6/ml, 37°C for 16 hours; read-out: minimum growth inhibitory concentration (MIC)
Description: An in vitro antibacterial activity was measured by an agar disc dilution method. Varied test bacteria were cultivated overnight in triptophane-soybroth. A Mueller Hinton agar containing the compound of this invention in varied concentrations was streaked with one platinum loopful of each of the bacteria (number of living cells 10^6/ml).
Would you kindly list MIC for each of these compounds?
Your answer is read as µg/mL, so omit the unit and give the number.

Problem: Check the records and state MIC for CON=C(C(=O)NC1C(=O)N2C(C(=O)[O-])=C(C[n+]3ccc4cc(O)c(O)cc4c3)CSC12)c1csc(N)n1 (stereo not drawn) [Comparative Compound A, reference compound]
Result: 0.2

Problem: Check the records and state MIC for Nc1nc(C(=NOCC(=O)O)C(=O)NC2C(=O)N3C(C(=O)[O-])=C(C[n+]4ccc5cc(O)c(O)cc5c4)CSC23)ns1 (stereo not drawn) [Compound II]
Result: 0.2

Problem: Check the records and state MIC for Nc1nc(C(=NOC(C(=O)O)c2ccccc2)C(=O)NC2C(=O)N3C(C(=O)[O-])=C(C[n+]4ccc5cc(O)c(O)cc5c4)CSC23)ns1 (stereo not drawn) [Compound IV]
Result: 0.8

Problem: Check the records and state MIC for CON=C(C(=O)NC1C(=O)N2C(C(=O)[O-])=C(C[n+]3ccc4cc(O)c(O)cc4c3)CSC12)c1nsc(N)n1 (stereo not drawn) [Compound I]
Result: 0.05

Problem: Check the records and state MIC for CC(C)(ON=C(C(=O)NC1C(=O)N2C(C(=O)[O-])=C(C[n+]3ccc4cc(O)c(O)cc4c3)CSC12)c1csc(N)n1)C(=O)O (stereo not drawn) [Comparative Compound B, reference compound]
Result: 1.6

Problem: Check the records and state MIC for CC(C)(ON=C(C(=O)NC1C(=O)N2C(C(=O)[O-])=C(C[n+]3ccc4cc(O)c(O)cc4c3)CSC12)c1nsc(N)n1)C(=O)O (stereo not drawn) [Compound III]
Result: 1.6

====

System: P.morganii IFO3445
Assay: In vitro antibacterial activity, agar disc dilution method
Type: cell-based
Details: Morganella morganii; P.morganii IFO3445; Mueller Hinton agar, 10^6/ml, 37°C for 16 hours; read-out: minimum growth inhibitory concentration (MIC)
measurementKind: MIC (ng/mL)
Your answer is read as ng/mL, so omit the unit and give the number.

Problem: Check the records and state MIC for CC(C)(ON=C(C(=O)NC1C(=O)N2C(C(=O)[O-])=C(C[n+]3ccc4cc(O)c(O)cc4c3)CSC12)c1nsc(N)n1)C(=O)O (stereo not drawn)
Result: 5

Problem: Check the records and state MIC for CC(C)(ON=C(C(=O)NC1C(=O)N2C(C(=O)[O-])=C(C[n+]3ccc4cc(O)c(O)cc4c3)CSC12)c1csc(N)n1)C(=O)O (stereo not drawn) [Comparative Compound B, reference compound]
Result: 5

Problem: Check the records and state MIC for CON=C(C(=O)NC1C(=O)N2C(C(=O)[O-])=C(C[n+]3ccc4cc(O)c(O)cc4c3)CSC12)c1nsc(N)n1 (stereo not drawn)
Result: 5

Problem: Check the records and state MIC for CON=C(C(=O)NC1C(=O)N2C(C(=O)[O-])=C(C[n+]3ccc4cc(O)c(O)cc4c3)CSC12)c1csc(N)n1 (stereo not drawn) [Comparative Compound A, reference compound]
Result: 100

Problem: Check the records and state MIC for Nc1nc(C(=NOCC(=O)O)C(=O)NC2C(=O)N3C(C(=O)[O-])=C(C[n+]4ccc5cc(O)c(O)cc5c4)CSC23)ns1 (stereo not drawn)
Result: 5

Problem: Check the records and state MIC for Nc1nc(C(=NOC(C(=O)O)c2ccccc2)C(=O)NC2C(=O)N3C(C(=O)[O-])=C(C[n+]4ccc5cc(O)c(O)cc5c4)CSC23)ns1 (stereo not drawn)
Result: 5
